Provenance of the data: the nanobody polyreactivity screen of Harvey et al. (2022)

Experiment: yeast display, Sf9 membrane polyspecificity reagent, FACS + sequencing; frameworks hold sequencing errors

| ENTRY_SEQUENCE | polyreactivity (PSR sort gate) |
| --- | --- |
| QVQLVESGGGLVQAGGSLRLSCAASGSTFRWYAMGWYRQAPGKERELVASITRGGGSTYYADSVKGRFTISRDNAKNTVYLQMNSLKPEDTAVYYCAKRSLWSYYEGYYYWGQGTQVTVSS | high polyreactivity |
| QVQLVESGGGLVQAGGSLRLSCAASGGTFRLYAMGWYRQAPGKDRELVAAITGVGSTNYADSVKGRFTISRDNAKNTVYLQMNSLKPEDTAVYYCAAYYWSQVLIQGYYSWGQGTQVTVSS | high polyreactivity |
| QVQLVESGGGLVLAGGSLRLSCAASGSIFDDNAMGWYIQAPGKERELVAANTVSTDTTYYADSVKGRFTISRDIAKNTVSLLMNSLKPEDTAVYYCAAEGPGYGPTGDFYWYTYYYWGQGTQVTVSS | low polyreactivity |
| QVQLVESGGGLVQAGGSLRLSCAASGRTFRGNAMGWYRQAPGKERELVAAISRSGGRTYYADSVKGRFTISRDNAKNTVYLQMNSLKPEDTAVYYCNARSYRRWGYYKQAPNGDYWGQGTQVTVSS | high polyreactivity |
| QVQLVESGLGLVQAGGSLRLSCAASGFTFTGYAMGWYRQAPGKERELVAAITRGGGSTYYADSVKGRFTISRDNAKNTVYLQMNSLKPEDTAVYYCAAQRSRLIRISSPYYGHEYWVQGTQVTVSS | low polyreactivity |
| QVQLVESGGGLVQAGGSLRLSCAASGSTFRVNAMGWYRQAPGKERELVAAISFSAGGTYYADSVKGRFTISRDNAKNTVYLQMNSLKPADTAVYYCNARYGGWVWSTYDHWGQGTQVTVSS | low polyreactivity |
| QVQLVESGGGLVQAGGSLRLSCAASGRTFHSNDMGWYRQAPGKERELVAAISSSDGITYYADSVKGRFTISRDNAKNTVYLQMNSLKQEDNAVYYCAARRYRSGYYSFYFWGQGTQVTVSS | high polyreactivity |
| QVQLVESGGGLVQAGGSLRLSCAASGSIFALYAMGWYRQAPGKERELVAAISYRGGRTYYADSVKGRFTISRDNAKNTVYLQMNSLKPEDTAVYYCKAAYGTSYLYNSEFYAAFTYDYWGQGTQVTVSS | low polyreactivity |
| QVQHVESGGGLVQAGGSLRLSCAASGSTFDGYAMGWYRQAPGKERELVAAISRSGGRTYYADSVKGRFTISRDNAKNTVYLQMTSLKPEDTAVYYCAALYPYKREDYWGQGTQVTVSS | high polyreactivity |
| QVQLVESGGGLVQAGVSLRLSCAASGSTFARYAMGWYRQAPGKERELVAVITQSGSSTYYADSVKGRFTISRDNAKNTVYLQMNSLKPEDTAVYYCAAVGIDYTRYGRYWYSYDYWGQGTQVTVSS | high polyreactivity |
| QVQLVESAGGLVQAGGSLRLSCAASGSTFTGYAMGWYRQAPGKERELVAAITYSGVRTNYADSVKGRFTISRDNANNTVYLQMNSLKPEDTAVYYCNAAVVYVKMDYWGQGTQVTVSS | low polyreactivity |
| QVQLVESGGGLVQAGGSLRISCAASGSIFDSKAMGWYRQAPGKERELVASFTSSGGSTYYADSVKGRFTISRDNAKNTVYLPRNSRKPEDTAVYYCAADSYKTIQDAYDYWGQGTQVTVSS | high polyreactivity |
| QVQLVESGGGLVQAGGSLRLSSAASGRIFRYYAMGWYSQAPGKERELVAAISWSGGNSYYADSVKGRFTISRDNAKNTVYLQMNSLKTEDTAVYYCNAYYLPSRYDYWGQGTQVTVSS | high polyreactivity |
| QVQLVESGGGLVQAGGSLRLSCAASGLIFSFYDMGWYRQAPGKEREFVAAISGSGGSTYYADSVKGRFTISRDNEKNTVYLHMNILKPEDTAVYYCAAEYFTFYWKLDYWGQGTQVTVSS | high polyreactivity |
| QVQLVESGGGLVQAGGSLRLSCAASGRTFSANAMGWYRLAPGKERELVATISSGGRTNYADSVKGRFTISRDNAKNTVYLQMNSLKPEDTAVYYCAKRGPYNRWYGRYDYWGQGTQVTVSS | low polyreactivity |
| QVQLVESGGGLVQAGGSLRLSCAASGSTLYYYAMGWYRQAPGKERELVATITNGGSTNYADSVKGRFTISRDNAKNTVYLQMNSLKPEDTAVYYCNARRGYWGSHYWGQGTQVTVSS | high polyreactivity |
| QVQLVESGGGLVQAGGSLRLSCAASGLTFSVYAMGWYRQAPGKERELVAAITSSGRTYYADSVKGRFTISRDNAKNTVYLQMNSLKPEDTAVYYCAAGYKSGPRRYYYWGQGTQVTVSS | high polyreactivity |
| QVQLVESGGGLVQAGGSLRLSCAASGRTFYRNAMGWYKQAPGKERELVAAISRSGGSTYYADSVKGRFTISRDNAKNTVYLQMNSLKPEDTAVYYCNKRYPLGTEYYYWGLGTQVTVSS | high polyreactivity |
| QVQLVESGGGLVQAGGSLRLSSASSGRIFPDNTMGWYRQAPGKERELVAVITYSGGSTYYADSVKGRFTISRDNAKNTVYLQMNSLKPDDTAVYYCAARDYYIWFAEVDYWGQGTQVTVSS | low polyreactivity |
| QVQLVESGAGLVQARGSLRLSCAASGFTISYYAMGWYRQAPVKERELVAAITSGGSTYYADYVKGRFTISRDNAKNTVYVQMNSLKPEDTAVYYCIADGWYYPTDDYWGQGSQVTVSS | low polyreactivity |
| QVQLVESGGGLVQAGGSLRLSCAASGSTFKKYAMGWYRLAPGKERELVAAITGSGGRTYYADSVKGRFTISRDNAKNTVDLQMNSLKPEDTAVYYCAKLNNYGYDYWGQGTQVTVSS | high polyreactivity |
